Assign Cmax to each entry below.
Experiment: Cmax in Sprague-Dawley rat at 3 ml/kg,po measured upto 24 hrs by UPLC-MS/MS analysis
Format: ADME
Parameters: dose 3 ml/kg, time < 24 hrs, route po
Settings: Sprague-Dawley, in vivo, 3 ml/kg
Only the number, expressed in nM, is required.

Challenge: Quick check: Cmax of COC(=O)N[C@H](C(=O)N[C@@H](Cc1ccccc1)[C@H](CN(Cc1ccc(-c2ccccn2)cc1)NC(=O)[C@@H](NC(=O)OC)C(C)(C)C)OC(=O)OC(OC(=O)[C@@H](N)Cc1ccccc1)C(C)C)C(C)(C)C (stereo in doubt; 3w) ?
Response given: 50

Challenge: Quick check: Cmax of COC(=O)N[C@H](C(=O)N[C@@H](Cc1ccccc1)[C@H](CN(Cc1ccc(-c2ccccn2)cc1)NC(=O)[C@@H](NC(=O)OC)C(C)(C)C)OC(=O)OC(OC(=O)CCN)C(C)C)C(C)(C)C (stereo in doubt; 3z) ?
Response given: 6

Challenge: Quick check: Cmax of COC(=O)N[C@H](C(=O)N[C@@H](Cc1ccccc1)[C@H](CN(Cc1ccc(-c2ccccn2)cc1)NC(=O)[C@@H](NC(=O)OC)C(C)(C)C)OC(=O)OC(OC(=O)[C@@H](N)C(C)C)C(C)C)C(C)(C)C (stereo in doubt; 3s) ?
Response given: 19

Challenge: Quick check: Cmax of COC(=O)N[C@H](C(=O)N[C@@H](Cc1ccccc1)[C@H](CN(Cc1ccc(-c2ccccn2)cc1)NC(=O)[C@@H](NC(=O)OC)C(C)(C)C)OC(=O)OC(OC(=O)C1(N)CC1)C(C)C)C(C)(C)C (stereo in doubt; 3x) ?
Response given: 1260

Challenge: Quick check: Cmax of COC(=O)N[C@H](C(=O)N[C@@H](Cc1ccccc1)[C@H](CN(Cc1ccc(-c2ccccn2)cc1)NC(=O)[C@@H](NC(=O)OC)C(C)(C)C)OC(=O)OC(OC(=O)[C@@H](NC(=O)[C@H](N)C(C)C)C(C)C)C(C)C)C(C)(C)C (stereo in doubt; 6h) ?
Response given: 3060

Challenge: Quick check: Cmax of COC(=O)N[C@H](C(=O)N[C@@H](Cc1ccccc1)[C@H](CN(Cc1ccc(-c2ccccn2)cc1)NC(=O)[C@@H](NC(=O)OC)C(C)(C)C)OC(=O)OC(OC(=O)C[C@H](N)Cc1cc(F)c(F)cc1F)C(C)C)C(C)(C)C (stereo in doubt; 3ac) ?
Response given: 989

Challenge: Quick check: Cmax of COC(=O)N[C@H](C(=O)N[C@@H](Cc1ccccc1)[C@H](CN(Cc1ccc(-c2ccccn2)cc1)NC(=O)[C@@H](NC(=O)OC)C(C)(C)C)OC(=O)OC(OC(=O)[C@@H](N)CC(C)C)C(C)C)C(C)(C)C (stereo in doubt; 3u) ?
Response given: 182

Challenge: Quick check: Cmax of CN[C@H](C(=O)OC(OC(=O)O[C@@H](CN(Cc1ccc(-c2ccccn2)cc1)NC(=O)[C@@H](NC(=O)OC)C(C)(C)C)[C@H](Cc1ccccc1)NC(=O)[C@@H](NC(=O)OC)C(C)(C)C)C(C)C)C(C)C (stereo in doubt; 5e) ?
Response given: 342

The measurements presented in this section are drawn from ChEMBL document CHEMBL5137093.
